# assay_notes: chemical genetic growth profiling, strain panel (AID 1159580);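 note: tested at 20 µM; growth read once vehicle control cultures reached saturation at 30 °C; 1 = growth at the plate median or of vehicle wells; lower values mean less growth of the strain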
# study_conditions: S. cerevisiae deletion strains, growth OD, locus YOR080W, strain dia2, stronger effect = lower value
The campaign covered roughly 5,500 compounds. About 2,000 (36%) were called active. Roughly 18% stayed inconclusive and do not appear here. This is one part of the list.
Please provide measured normalized growth for the entries that follow.

compound	measurement_name	experimental_value
O=C(O)CC(O)(CC(=O)O)C(=O)O	normalized growth	1.02 (inactive)

# batch size: 8; output normalized growth per entry
1. CO[C@@]12[C@@H]3NC3CN1C1=C(C(=O)C(N)=C(C)C1=O)[C@@H]2COC(N)=O (some centres not stated)
2. COC(=O)Nc1nc2ccc(Sc3ccccc3)cc2[nH]1
3. C[C@@H]1CC[C@H]2[C@@H](C)C(O)O[C@@H]3O[C@@]4(C)CC[C@@H]1[C@]32OO4 (some centres not stated)
4. CCOc1ccc2nc3cc(N)ccc3c(N)c2c1
5. C#C[C@]1(O)CCC2C3CCC4=CC(=O)CC[C@@H]4C3CC[C@@]21C (some centres not stated)
6. COc1cccc2c1C(=O)c1c(O)c3c(c(O)c1C2=O)C[C@@](O)(C(=O)CO)C[C@@H]3O[C@H]1C[C@H](N)[C@@H](O)[C@H](C)O1
7. C/C=C1\[C@H]2C=C(C)C[C@]1(N)c1ccc(=O)[nH]c1C2
8. C[C@@H]1OC(O[C@H]2C(O[C@H]3CC[C@@]4(C)C(CC[C@]5(C)C4CC=C4C6CC(C)(C)CC[C@]6(C(=O)O)CC[C@]45C)[C@]3(C)CO)OC[C@H](O)[C@@H]2O)[C@H](O)[C@H](O)[C@H]1O (some centres not stated)

1. 0.968 (inactive)
2. 0.993 (inactive)
3. 0.431 (active)
4. 0.876 (active)
5. 0.994 (inactive)
6. 0.89 (active)
7. 1.02 (inactive)
8. 0.0631 (active)

# batch size: 4; output normalized growth per entry
1. Cc1ccc(-c2cc(C(F)(F)F)nn2-c2ccc(S(N)(=O)=O)cc2)cc1
2. CC(=O)/C=C\[C@@H]1[C@@]2(C)CCCC(C)(C)C2CC[C@@]1(C)O (some centres not stated)
3. O=c1oc2cc(O)ccc2s1
4. COC(=O)Nc1nc2ccc(S(=O)c3ccccc3)cc2[nH]1 (configuration not stated)

1.05 (inactive)
0.978 (inactive)
1.02 (inactive)
0.974 (inactive)

# batch size: 7; output normalized growth per entry
1. N=C(N)c1ccc(OCCCCCOc2ccc(C(=N)N)cc2)cc1
2. CC1(C)CC[C@]2(C)CC[C@]3(C)C(=CCC4[C@@]5(C)CC[C@H](O)C(C)(C)C5CC[C@]43C)C2C1 (some centres not stated)
3. CC(C)=CCCC1(C)C=Cc2c(O)c3c(c(CC=C(C)C)c2O1)OC12C(=CCCC1C(C)(C)O[C@@]2(C/C=C(\C)C(=O)O)C(=O)O)C3=O (some centres not stated)
4. C#C[C@]1(O)CCC2C3CCC4=CC(=O)CC[C@@H]4C3CC[C@@]21CC (some centres not stated)
5. NC(N)=N/N=C/c1c(Cl)cccc1Cl
6. COc1cccc2c1C(=O)c1c(O)c3c(c(O)c1C2=O)C[C@@](O)(C(C)=O)C[C@@H]3O[C@H]1C[C@H](N)[C@H](O)[C@H](C)O1
7. CNCc1ccccc1

1: 0.936 (inactive); 2: 0.998 (inactive); 3: 1.03 (inactive); 4: 0.996 (inactive); 5: 0.98 (inactive); 6: 0.951 (inactive); 7: 1.02 (inactive)

# batch size: 4; output normalized growth per entry
1. FC(F)(F)c1ccccc1-n1ccnc1
2. Cc1cc(-n2c(=O)[nH]c(=O)n(C)c2=O)ccc1Oc1ccc(SC(F)(F)F)cc1
3. CC(C)=CCCC1(C)C=Cc2c(O)c3c(c(CC=C(C)C)c2O1)OC12C(=CC4CC1C(C)(C)OC2(C/C=C(/C)C(=O)O)C4=O)C3=O (configuration not stated)
4. C[C@H]1[C@H](C)CC[C@]2(CO)CC[C@]3(C)C(=CCC4[C@@]5(C)CC[C@H](O)C(C)(C)C5CC[C@]43C)[C@H]12 (some centres not stated)

1. 1 (inactive)
2. 1.02 (inactive)
3. 0.982 (inactive)
4. 0.992 (inactive)

# batch size: 8; output normalized growth per entry
1. COC(=O)Nc1nc2ccc(C(=O)c3ccccc3)cc2[nH]1
2. COc1cccc2c1C(=O)c1c(O)c3c(c(O)c1C2=O)C[C@@](O)(C(=O)CO)C[C@@H]3OC1C[C@H](N)[C@H](O)[C@H](C)O1 (some centres not stated)
3. COC(=O)C[C@H]1C(C)(C)C(=O)[C@@H]2CC3C4=CC(=O)O[C@@H](c5ccoc5)[C@]4(C)CCC3[C@@]1(C)C2=O (some centres not stated)
4. Cc1ccc(S(=O)(=O)NC(=O)NN2CC3CCCC3C2)cc1 (configuration not stated)
5. O=C1c2c(O)cccc2Cc2cccc(O)c21
6. C[C@@H]1CC[C@H]2[C@@H](C)C(=O)O[C@@H]3O[C@@]4(C)CC[C@@H]1[C@]32OO4
7. Nc1c2c(nc3ccccc13)CCCC2O (configuration not stated)
8. CC(C)(C#N)O[C@@H]1O[C@H](CO)[C@@H](O)[C@H](O)[C@H]1O

0.979 (inactive)
0.627 (active)
0.983 (inactive)
0.97 (inactive)
1 (inactive)
0.926 (inactive)
0.996 (inactive)
1.01 (inactive)

# batch size: 3; output normalized growth per entry
1. NNc1nncc2ccccc12
2. CNC(=O)O/N=C\C(C)(C)SC
3. Nc1c2c(nc3ccccc13)CCCC2

1. 0.997 (inactive)
2. 0.996 (inactive)
3. 0.969 (inactive)

# batch size: 7; output normalized growth per entry
1. OC(CCN1CCCCC1)(c1ccccc1)C1CCCCC1 (configuration not stated)
2. N=C(N)SCCN
3. CC(C)CC(N(C)C)C1(c2ccc(Cl)cc2)CCC1 (configuration not stated)
4. C#C[C@]1(O)CCC2C3CCC4=C(CCC(=O)C4)C3CC[C@@]21C (some centres not stated)
5. O=C(CNC(=O)c1ccc(Cl)cc1)NO
6. O=c1ccc2ccc(O)cc2o1
7. CCCCCCCCCCCC[C@H](C(=O)O)[C@@H](C)C(=O)O

["0.971 (inactive)", "0.996 (inactive)", "1.01 (inactive)", "0.999 (inactive)", "1.01 (inactive)", "0.992 (inactive)", "0.962 (inactive)"]
